target: HDAC3 (Homo sapiens); construct: endogenous in cells; host or cells: HCT116; assay: HDAC3 degradation in HCT116 cells, quantitative western blot; assay type: cell-based; details: HCT-116, 24 h; HCT116, screened at 0.1, 1 and 10 μM; maximum degradation irrespective of concentration; read-out: HDAC 3 degrader (% Degradation)
Sequence (O15379 whole entry): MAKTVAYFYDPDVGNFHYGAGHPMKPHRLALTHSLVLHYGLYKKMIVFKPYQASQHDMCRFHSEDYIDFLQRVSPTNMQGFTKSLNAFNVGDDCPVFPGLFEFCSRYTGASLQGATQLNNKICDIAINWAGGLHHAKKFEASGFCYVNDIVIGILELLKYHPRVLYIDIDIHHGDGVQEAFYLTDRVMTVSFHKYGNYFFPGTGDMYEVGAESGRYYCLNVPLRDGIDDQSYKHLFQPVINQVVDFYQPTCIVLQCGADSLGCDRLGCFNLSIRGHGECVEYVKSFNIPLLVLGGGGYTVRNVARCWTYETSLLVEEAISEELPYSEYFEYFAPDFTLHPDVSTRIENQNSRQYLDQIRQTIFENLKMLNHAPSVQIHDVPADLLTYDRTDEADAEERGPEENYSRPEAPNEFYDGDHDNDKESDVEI
result-type: Dmax (%)

[
  {
    "test-smiles": "CN[C@@H](C)C(=O)N[C@H](C(=O)N1CCC[C@H]1c1nc(C(=O)c2cccc(OCCCCCCCCCCCC(=O)Nc3ccc(C(=O)Nc4ccccc4N)cc3)c2)cs1)C1CCCCC1",
    "target-of-assay": "HDAC3 (Homo sapiens)",
    "Dmax, %": 37
  },
  {
    "test-smiles": "CN[C@@H](C)C(=O)N[C@H](C(=O)N1C[C@@H](NC(=O)COCCOCCOCC(=O)Nc2ccc(C(=O)Nc3ccccc3N)cc2)C[C@H]1C(=O)N[C@@H]1CCCc2ccccc21)C1CCCCC1",
    "target-of-assay": "HDAC3 (Homo sapiens)",
    "Dmax, %": 57
  },
  {
    "test-smiles": "Cc1ncsc1-c1ccc(CNC(=O)[C@@H]2C[C@@H](O)CN2C(=O)[C@@H](NC(=O)CCCCCCCCCCCCC(=O)Nc2ccc(C(=O)Nc3ccccc3N)cc2)C(C)(C)C)cc1",
    "target-of-assay": "HDAC3 (Homo sapiens)",
    "Dmax, %": 30
  }
]

(A) Cc1ncsc1-c1ccc(CNC(=O)[C@@H]2C[C@@H](O)CN2C(=O)[C@@H](NC(=O)COCCOCCOCC(=O)Nc2ccc(C(=O)Nc3cc(-c4cccs4)ccc3N)cc2)C(C)(C)C)cc1
(B) Cc1ncsc1-c1ccc(CNC(=O)[C@@H]2C[C@@H](O)CN2C(=O)[C@@H](NC(=O)COCCCCCCCCCOCC(=O)Nc2ccc(C(=O)Nc3ccccc3N)cc2)C(C)(C)C)cc1
q: Between A and B , which one shows the larger Dmax value? // caller expects the label of the chosen entry
a: B
(B: 67%, A: 32%)

----------
target: HDAC1 (Homo sapiens); construct: endogenous in cells; host or cells: HCT116; assay: HDAC1 degradation in HCT116 cells, quantitative western blot; assay type: cell-based; details: HCT-116, 24 h; HCT116, screened at 0.1, 1 and 10 μM; maximum degradation irrespective of concentration; read-out: HDAC1 Degrader (% Degradation)
Sequence (Q13547 whole entry): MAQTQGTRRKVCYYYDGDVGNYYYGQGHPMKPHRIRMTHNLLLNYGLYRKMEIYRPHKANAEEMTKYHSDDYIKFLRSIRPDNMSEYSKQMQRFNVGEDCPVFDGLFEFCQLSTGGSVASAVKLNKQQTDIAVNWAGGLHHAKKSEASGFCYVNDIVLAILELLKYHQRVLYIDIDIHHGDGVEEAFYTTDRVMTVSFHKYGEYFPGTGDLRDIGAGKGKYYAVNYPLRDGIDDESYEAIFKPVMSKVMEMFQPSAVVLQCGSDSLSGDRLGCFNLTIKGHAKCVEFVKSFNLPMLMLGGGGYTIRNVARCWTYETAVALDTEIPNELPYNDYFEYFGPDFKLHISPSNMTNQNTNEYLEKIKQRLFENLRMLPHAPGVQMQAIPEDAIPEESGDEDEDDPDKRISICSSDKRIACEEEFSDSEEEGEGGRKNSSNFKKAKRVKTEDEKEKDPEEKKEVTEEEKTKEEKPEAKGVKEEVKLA
result-type: Dmax (%)

These recorded examples may help you get a feel for the data.
[
  {
    "test-smiles": "Cc1ncsc1-c1ccc(CNC(=O)[C@@H]2C[C@@H](O)CN2C(=O)[C@@H](NC(=O)C2(F)CC2)C(C)(C)C)c(OCCCCCCCCCCCC(=O)Nc2ccc(C(=O)Nc3ccccc3N)cc2)c1",
    "Dmax [%]": 51
  },
  {
    "test-smiles": "Cc1ncsc1-c1ccc(CNC(=O)[C@@H]2C[C@@H](O)CN2C(=O)[C@@H](NC(=O)CCCCCCCCCCC(=O)Nc2ccc(C(=O)Nc3ccc(F)cc3N)cc2)C(C)(C)C)cc1",
    "Dmax [%]": 58
  },
  {
    "test-smiles": "Cc1ncsc1-c1ccc(CNC(=O)[C@@H]2C[C@@H](O)CN2C(=O)[C@@H](NC(=O)CCCCCCCC(=O)Nc2ccc(C(=O)Nc3ccccc3N)cc2)C(C)(C)C)cc1",
    "Dmax [%]": 60
  }
]

(A) CN[C@@H](C)C(=O)N[C@H](C(=O)N1CCC[C@H]1c1nc(C(=O)c2cccc(OCCCCCCCCCCCC(=O)Nc3ccc(C(=O)Nc4ccccc4N)cc3)c2)cs1)C1CCCCC1
(B) CC(=O)N[C@H](C(=O)N1C[C@H](O)C[C@H]1C(=O)NCc1ccc(-c2scnc2C)cc1OCCCCCCCCCCCC(=O)Nc1ccc(C(=O)Nc2ccccc2N)cc1)C(C)(C)C
q: Between A and B , which one shows the larger Dmax value? // caller expects the label of the chosen entry
a: B
